Measured pIC50, listed per entry.
- Target or system: HLA-DRB1*03:01 (Homo sapiens, UniProt P01903+P01911, A100K/A102G/A103R/A169T/F55Y/I96L/K41T/L162R/M171V/P40S/Q125H/Q178H/Q39Y/R42S/S66N/T106N/T262R/W38E/Y61H)
- Sequence (P01903 26-254, other chains not shown): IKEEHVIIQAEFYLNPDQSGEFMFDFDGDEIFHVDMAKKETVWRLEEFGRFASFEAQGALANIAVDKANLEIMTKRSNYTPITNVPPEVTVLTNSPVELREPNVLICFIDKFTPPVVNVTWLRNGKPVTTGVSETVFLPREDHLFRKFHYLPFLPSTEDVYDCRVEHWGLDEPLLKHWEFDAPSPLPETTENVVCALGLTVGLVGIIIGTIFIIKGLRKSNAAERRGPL
- Procedure details: biochemical
pIC50: −log10 of the molar value.
Readout type: pIC50

Compound: CC[C@H](C)[C@H](NC(=O)[C@H](Cc1ccccc1)NC(=O)[C@H](CO)NC(=O)[C@H](CCCNC(=N)N)NC(=O)[C@H](CCCCN)NC(=O)[C@H](CO)NC(=O)[C@@H]1CCCN1C(=O)[C@@H](N)CCCCN)C(=O)N[C@@H](CCC(=O)O)C(=O)N[C@@H](CC(=O)O)C(=O)N[C@@H](CC(C)C)C(=O)N[C@@H](CC(C)C)C(=O)N[C@@H](Cc1ccccc1)C(=O)N[C@@H](CC(N)=O)C(=O)N[C@@H](CCCCN)C(=O)O [peptide 163]
Readout type: pIC50
Measured number: 5.82

Compound: CC[C@H](C)[C@H](N)C(=O)N1CCC[C@H]1C(=O)N[C@@H](Cc1ccccc1)C(=O)N[C@@H](C)C(=O)N[C@@H](CCSC)C(=O)N[C@@H](CCC(N)=O)C(=O)N[C@@H](CCSC)C(=O)N[C@@H](C)C(=O)N[C@@H](Cc1ccc(O)cc1)C(=O)N[C@@H](CCCNC(=N)N)C(=O)N[C@@H](Cc1ccccc1)C(=O)N[C@@H](CC(N)=O)C(=O)NCC(=O)N[C@H](C(=O)NCC(=O)O)[C@@H](C)CC [peptide 180]
Readout type: pIC50
Measured number: 4.93

Compound: CC[C@H](C)[C@H](NC(=O)[C@H](Cc1ccccc1)NC(=O)[C@@H](N)CO)C(=O)N[C@@H](CCC(=O)O)C(=O)N[C@@H](CC(=O)O)C(=O)N[C@@H](CC(C)C)C(=O)N[C@@H](CC(C)C)C(=O)N[C@@H](Cc1ccccc1)C(=O)N[C@@H](CC(N)=O)C(=O)N[C@@H](CCCCN)C(=O)N[C@H](C(=O)N[C@H](C(=O)N[C@@H](CC(C)C)C(=O)N[C@@H](C)C(=O)N[C@@H](CC(=O)O)C(=O)O)[C@@H](C)O)C(C)C [peptide 164]
Readout type: pIC50
Measured number: 5.49

---

- Target or system: HLA-DRB1*13:02 (Homo sapiens, UniProt P01903+P01911, A100E/A169T/K41T/L162R/M171V/P40S/Q125H/Q178H/Q39Y/Q99D/R42S/S66N/T262R/V115G/W38E/Y61H)
- Procedure details: biochemical
pIC50: −log10 of the molar value.
Quick reference: pIC50 of the listed items.

Compound: CC(C)[C@H](NC(=O)CNC(=O)[C@H](Cc1ccc(O)cc1)NC(=O)[C@H](CS)NC(=O)[C@H](CCCCN)NC(=O)[C@H](Cc1ccccc1)NC(=O)[C@@H](NC(=O)[C@H](CO)NC(=O)[C@H](Cc1ccccc1)NC(=O)[C@H](CO)NC(=O)[C@H](C)NC(=O)[C@@H](N)CO)[C@@H](C)O)C(=O)N[C@@H](CO)C(=O)N1CCC[C@H]1C(=O)N[C@H](C(=O)O)[C@@H](C)O [peptide 75]
Modifier sign: <
pIC50: 4.40
//
Compound: CC[C@H](C)[C@H](NC(=O)[C@H](CCCNC(=N)N)NC(=O)[C@H](CCCCN)NC(=O)[C@H](CCCNC(=N)N)NC(=O)[C@H](CC(N)=O)NC(=O)[C@H](Cc1c[nH]c2ccccc12)NC(=O)[C@H](C)NC(=O)[C@H](Cc1ccc(O)cc1)NC(=O)[C@@H](NC(=O)[C@H](CO)NC(=O)[C@H](C)NC(=O)[C@H](Cc1ccccc1)NC(=O)[C@@H](N)CCCNC(=N)N)C(C)C)C(=O)N[C@@H](CO)C(=O)N[C@@H](CC(N)=O)C(=O)O [compound 70]
Modifier sign: <
pIC50: 4.40
//
Compound: CC(C)[C@H](N)C(=O)N[C@@H](Cc1ccccc1)C(=O)N[C@@H](CC(N)=O)C(=O)N[C@@H](C)C(=O)N[C@H](C(=O)N[C@@H](CCCNC(=N)N)C(=O)N[C@@H](Cc1ccccc1)C(=O)N[C@@H](C)C(=O)N[C@@H](CO)C(=O)N[C@H](C(=O)N[C@@H](Cc1ccc(O)cc1)C(=O)N[C@@H](C)C(=O)N[C@@H](Cc1c[nH]c2ccccc12)C(=O)N[C@@H](CC(N)=O)C(=O)N[C@@H](CCCNC(=N)N)C(=O)O)C(C)C)[C@@H](C)O [peptide 69]
Modifier sign: <
pIC50: 4.40
//
Compound: CC[C@H](C)[C@H](N)C(=O)N1CCC[C@H]1C(=O)N[C@@H](Cc1ccccc1)C(=O)N[C@@H](C)C(=O)N[C@@H](CCSC)C(=O)N[C@@H](CCC(N)=O)C(=O)N[C@@H](CCSC)C(=O)N[C@@H](C)C(=O)N[C@@H](Cc1ccc(O)cc1)C(=O)N[C@@H](CCCNC(=N)N)C(=O)N[C@@H](Cc1ccccc1)C(=O)N[C@@H](CC(N)=O)C(=O)NCC(=O)N[C@H](C(=O)NCC(=O)O)[C@@H](C)CC [peptide 180]
Modifier sign: =
pIC50: 4.86
//
Compound: CC(C)C[C@H](NC(=O)[C@H](C)NC(=O)[C@H](CC(C)C)NC(=O)[C@H](CC(C)C)NC(=O)[C@@H](NC(=O)[C@H](CCC(N)=O)NC(=O)[C@H](Cc1ccccc1)NC(=O)[C@H](CCCNC(=N)N)NC(=O)[C@@H](N)[C@@H](C)O)[C@@H](C)O)C(=O)N[C@@H](Cc1c[nH]cn1)C(=O)N[C@@H](CCCNC(=N)N)C(=O)N[C@@H](CO)C(=O)N[C@@H](Cc1ccc(O)cc1)C(=O)N[C@@H](CC(C)C)C(=O)N[C@H](C(=O)O)[C@@H](C)O [peptide 48]
Modifier sign: =
pIC50: 4.52

---

- Target or system: HLA-DRB1*07:01 (Homo sapiens, UniProt P01903+P01911, A100R/A102G/A103Q/D57E/D86V/E43K/F76Y/K127E/L162R/M171V/P40G/Q125H/Q99D/R33Q/R42Y/R54Q/S133A/S66F/T210M/V115G/Y107V/Y59L/Y89S)
- Procedure details: biochemical
pIC50: −log10 of the molar value.

Molecule: CC[C@H](C)[C@H](NC(=O)[C@H](CCCNC(=N)N)NC(=O)[C@H](CCCCN)NC(=O)[C@H](CCCNC(=N)N)NC(=O)[C@H](CC(N)=O)NC(=O)[C@H](Cc1c[nH]c2ccccc12)NC(=O)[C@H](C)NC(=O)[C@H](Cc1ccc(O)cc1)NC(=O)[C@@H](NC(=O)[C@H](CO)NC(=O)[C@H](C)NC(=O)[C@H](Cc1ccccc1)NC(=O)[C@@H](N)CCCNC(=N)N)C(C)C)C(=O)N[C@@H](CO)C(=O)N[C@@H](CC(N)=O)C(=O)O
pIC50: 6.27
--
Molecule: CC(C)C[C@H](NC(=O)[C@H](CCCNC(=N)N)NC(=O)[C@H](Cc1ccc(O)cc1)NC(=O)[C@H](CC(C)C)NC(=O)[C@@H](N)Cc1ccc(O)cc1)C(=O)N[C@@H](Cc1ccccc1)C(=O)N[C@@H](CCCNC(=N)N)C(=O)N[C@@H](CCCCN)C(=O)N[C@@H](CO)C(=O)N[C@@H](CC(N)=O)C(=O)N[C@@H](CC(C)C)C(=O)N[C@@H](CCCCN)C(=O)N1CCC[C@H]1C(=O)N[C@@H](Cc1ccccc1)C(=O)N[C@@H](CCC(=O)O)C(=O)O [peptide 91]
pIC50: 6.24

---

- Target or system: HLA-DRB1*15:01 (Homo sapiens, UniProt P01903+P01911)
- Procedure details: biochemical
- Type: binding
Readout type: IC50 (µM)

Molecule: CC[C@H](C)[C@H](NC(=O)[C@H](Cc1ccccc1)NC(=O)[C@H](CO)NC(=O)[C@H](CCCNC(=N)N)NC(=O)[C@H](CCCCN)NC(=O)[C@H](CO)NC(=O)[C@@H]1CCCN1C(=O)[C@@H](N)CCCCN)C(=O)N[C@@H](CCC(=O)O)C(=O)N[C@@H](CC(=O)O)C(=O)N[C@@H](CC(C)C)C(=O)N[C@@H](CC(C)C)C(=O)N[C@@H](Cc1ccccc1)C(=O)N[C@@H](CC(N)=O)C(=O)N[C@@H](CCCCN)C(=O)O [peptide 163]
Readout type: IC50
Measured number: 6.81

---

Reported IC50 is given for each of the following molecules.
- Target or system: HLA-DRB1*04:05 (Homo sapiens, UniProt P01903+P01911, A100R/A169T/D86S/F76Y/I96L/K127E/L162R/M171V/N62H/P40V/Q125Y/R42H/S133A/S149N/S66Y/V115G/V209L/W38E)
- Procedure details: biochemical

Molecule: CC(C)[C@H](N)C(=O)N[C@@H](Cc1ccccc1)C(=O)N[C@@H](CC(N)=O)C(=O)N[C@@H](C)C(=O)N[C@H](C(=O)N[C@@H](CCCNC(=N)N)C(=O)N[C@@H](Cc1ccccc1)C(=O)N[C@@H](C)C(=O)N[C@@H](CO)C(=O)N[C@H](C(=O)N[C@@H](Cc1ccc(O)cc1)C(=O)N[C@@H](C)C(=O)N[C@@H](Cc1c[nH]c2ccccc12)C(=O)N[C@@H](CC(N)=O)C(=O)N[C@@H](CCCNC(=N)N)C(=O)O)C(C)C)[C@@H](C)O [peptide 69]
IC50 / µM: 0.976
--
Molecule: CC[C@H](C)[C@H](N)C(=O)N1CCC[C@H]1C(=O)N[C@@H](Cc1ccccc1)C(=O)N[C@@H](C)C(=O)N[C@@H](CCSC)C(=O)N[C@@H](CCC(N)=O)C(=O)N[C@@H](CCSC)C(=O)N[C@@H](C)C(=O)N[C@@H](Cc1ccc(O)cc1)C(=O)N[C@@H](CCCNC(=N)N)C(=O)N[C@@H](Cc1ccccc1)C(=O)N[C@@H](CC(N)=O)C(=O)NCC(=O)N[C@H](C(=O)NCC(=O)O)[C@@H](C)CC [peptide 180]
IC50 / µM: 1.61
--
Molecule: CC[C@H](C)[C@H](NC(=O)[C@H](Cc1ccccc1)NC(=O)[C@H](CO)NC(=O)[C@H](CCCNC(=N)N)NC(=O)[C@H](CCCCN)NC(=O)[C@H](CO)NC(=O)[C@@H]1CCCN1C(=O)[C@@H](N)CCCCN)C(=O)N[C@@H](CCC(=O)O)C(=O)N[C@@H](CC(=O)O)C(=O)N[C@@H](CC(C)C)C(=O)N[C@@H](CC(C)C)C(=O)N[C@@H](Cc1ccccc1)C(=O)N[C@@H](CC(N)=O)C(=O)N[C@@H](CCCCN)C(=O)O [peptide 163]
IC50 / µM: 3.44
--
Molecule: CC[C@H](C)[C@H](NC(=O)CN)C(=O)N[C@@H](Cc1ccc(O)cc1)C(=O)N[C@@H](CCC(N)=O)C(=O)N[C@H](C(=O)N[C@@H](CO)C(=O)N[C@@H](CC(N)=O)C(=O)N[C@@H](Cc1ccccc1)C(=O)N[C@@H](CCCNC(=N)N)C(=O)N[C@H](C(=O)N[C@@H](CCC(N)=O)C(=O)N1CCC[C@H]1C(=O)N[C@H](C(=O)N[C@@H](CCC(=O)O)C(=O)N[C@@H](CO)C(=O)O)[C@@H](C)O)C(C)C)[C@@H](C)O [compound 63]
IC50 / µM: 0.201
--
Molecule: CSCC[C@H](NC(=O)[C@H](CC(C)C)NC(=O)[C@H](Cc1ccccc1)NC(=O)[C@@H]1CCCN1C(=O)[C@H](CCC(N)=O)NC(=O)[C@H](CO)NC(=O)[C@@H](NC(=O)[C@H](Cc1ccc(O)cc1)NC(=O)[C@H](CCC(=O)O)NC(=O)[C@H](Cc1ccccc1)NC(=O)[C@@H](NC(=O)[C@@H](N)CS)[C@@H](C)O)C(C)C)C(=O)N[C@@H](CC(=O)O)C(=O)N[C@@H](CC(C)C)C(=O)N[C@@H](CCC(=O)O)C(=O)O [peptide 34]
IC50 / µM: 0.016
